meta.source: patent US8404684B2

Biological target: recombinant GST-p110γ (human PI3Kγ, residues 38-1102) (Homo sapiens)
Construct: Residues 38-1102 of human PI3Kγ are subcloned into the BamH1 and EcoR1 sites
Sequence (P48736 38-1102): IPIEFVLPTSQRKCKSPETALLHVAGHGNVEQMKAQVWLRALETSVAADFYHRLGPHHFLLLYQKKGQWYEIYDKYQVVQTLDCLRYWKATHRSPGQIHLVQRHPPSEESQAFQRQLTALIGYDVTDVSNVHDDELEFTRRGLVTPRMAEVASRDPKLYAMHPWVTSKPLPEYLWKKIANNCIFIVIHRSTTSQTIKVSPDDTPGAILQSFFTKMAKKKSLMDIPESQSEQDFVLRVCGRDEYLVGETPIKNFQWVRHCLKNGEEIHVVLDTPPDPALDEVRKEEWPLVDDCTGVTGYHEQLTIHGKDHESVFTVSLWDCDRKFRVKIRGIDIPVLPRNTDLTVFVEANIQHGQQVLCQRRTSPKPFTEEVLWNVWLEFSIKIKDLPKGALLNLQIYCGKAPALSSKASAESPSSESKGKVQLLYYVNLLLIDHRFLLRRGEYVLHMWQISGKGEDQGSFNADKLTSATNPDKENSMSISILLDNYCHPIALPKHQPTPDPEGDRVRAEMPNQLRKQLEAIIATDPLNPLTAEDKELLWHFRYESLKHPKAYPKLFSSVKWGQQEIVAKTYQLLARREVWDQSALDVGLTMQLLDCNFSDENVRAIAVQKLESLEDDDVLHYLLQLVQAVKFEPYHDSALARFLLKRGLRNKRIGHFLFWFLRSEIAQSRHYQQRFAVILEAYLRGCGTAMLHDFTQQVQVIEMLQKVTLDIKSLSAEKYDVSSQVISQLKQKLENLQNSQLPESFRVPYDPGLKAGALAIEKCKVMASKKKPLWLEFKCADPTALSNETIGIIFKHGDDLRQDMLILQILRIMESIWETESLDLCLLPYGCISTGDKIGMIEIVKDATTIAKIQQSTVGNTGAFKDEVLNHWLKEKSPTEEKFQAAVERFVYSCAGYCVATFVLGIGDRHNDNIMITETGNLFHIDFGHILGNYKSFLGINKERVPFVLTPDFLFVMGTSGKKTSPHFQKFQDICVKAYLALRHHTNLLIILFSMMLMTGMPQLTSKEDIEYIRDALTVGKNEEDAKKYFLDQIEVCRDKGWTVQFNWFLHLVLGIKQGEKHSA
Test: PI3Kγ in vitro kinase assay (Scintillation Proximity Assay), transfer of terminal phosphate of ATP to phosphatidylinositol
Settings: 12.5 μM ATP, 15 μg/ml phosphatidylinositol, 60 minutes at room temperature
experimentalEndpoint: IC50 (µM)

Would you please look over these solved cases?
Inquiry: Request: IC50, test system recombinant GST-p110γ (human PI3Kγ, residues 38-1102) (Homo sapiens), entry `Cc1nc(NC(=O)NCCC(=O)OC(C)(C)C)sc1-c1ccnc(C2CC2)n1`
Reply text: 0.164

Inquiry: Request: IC50, test system recombinant GST-p110γ (human PI3Kγ, residues 38-1102) (Homo sapiens), entry `CC(=O)Nc1nc(C)c(-c2ccnc(C3CC3)n2)s1`
Reply text: 0.017

Inquiry: Request: IC50, test system recombinant GST-p110γ (human PI3Kγ, residues 38-1102) (Homo sapiens), entry `Cc1nc(Nc2cc[nH]n2)sc1-c1ccnc(N2CCOCC2)c1`
Reply text: 0.093

I: Cc1nc(Nc2cnccn2)sc1-c1ccnc(-n2ccnc2)c1
II: Cc1nc(N)sc1-c1ccnc(C(C)(C)C)n1
Inquiry: Would you mind telling me which has the lower recorded IC50 between I and II ? In your reply, give the label of the chosen option.
Reply text: II
